# study-system: T1, cynoCSF1R ECD-Fc (cynomolgus)
# T1 construct: also called cynomolgus CSF1R ECD
# T1 sequence (chain, as listed by the source): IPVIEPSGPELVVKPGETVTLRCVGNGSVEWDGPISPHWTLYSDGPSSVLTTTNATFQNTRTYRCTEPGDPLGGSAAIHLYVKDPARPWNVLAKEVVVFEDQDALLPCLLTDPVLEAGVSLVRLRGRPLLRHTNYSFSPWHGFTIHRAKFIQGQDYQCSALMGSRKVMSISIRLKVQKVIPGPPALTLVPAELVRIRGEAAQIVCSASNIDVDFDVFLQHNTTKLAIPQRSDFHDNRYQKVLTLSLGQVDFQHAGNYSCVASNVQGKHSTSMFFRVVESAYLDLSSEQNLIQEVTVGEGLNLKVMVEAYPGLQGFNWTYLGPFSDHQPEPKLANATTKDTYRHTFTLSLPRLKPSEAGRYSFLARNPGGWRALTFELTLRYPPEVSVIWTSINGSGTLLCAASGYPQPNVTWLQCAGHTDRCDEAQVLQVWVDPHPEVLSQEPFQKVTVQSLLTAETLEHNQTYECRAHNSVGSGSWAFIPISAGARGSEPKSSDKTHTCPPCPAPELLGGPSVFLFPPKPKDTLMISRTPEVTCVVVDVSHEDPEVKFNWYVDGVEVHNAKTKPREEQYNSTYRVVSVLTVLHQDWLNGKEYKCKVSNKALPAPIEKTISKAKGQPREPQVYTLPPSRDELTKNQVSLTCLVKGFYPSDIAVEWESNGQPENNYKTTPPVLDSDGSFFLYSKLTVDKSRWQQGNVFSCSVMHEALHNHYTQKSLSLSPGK
# protocol-details: competition ELISA, blocking of human IL34 binding to cynoCSF1R ECD-Fc
metric: IC50 (µg/mL)
Form entry: value (µg/mL) — number only.

binder	measure-unit	IC50
h0302-L2H1 (antibody, human IgG4 S228P, kappa, V domains shown, also called Ab9; huAb 0302-L2H1) VH: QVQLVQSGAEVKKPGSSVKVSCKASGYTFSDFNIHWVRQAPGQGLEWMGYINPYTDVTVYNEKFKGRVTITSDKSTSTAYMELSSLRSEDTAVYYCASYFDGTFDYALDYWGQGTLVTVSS VL: EIVVTQSPATLSLSPGERATLSCRASESVDNYGLSFMNWFQQKPGQAPRLLIYTASNLESGIPARFSGSGSRTDFTLTISSLEPEDFAVYYCQQSKELPWTFGQGTKVEIKR	µg/mL	0.509

Problem: Output IC50 of cAb 0311 (antibody, human IgG4 S228P, kappa, V domains shown) VH: EIQLQQSGPDLMKPGASVKMSCKASGYIFTDYNMHWVKQNQGKSLEWMGEINPNNGVVVYNQKFKGTTTLTVDKSSSTAYMDLHSLTSEDSAVYYCTRALYHSNFGWYFDSWGKGTTLTVSS VL: DIVLTQSPASLAVSLGQRATISCKASQSVDYDGDSHMNWYQQKPGQPPKLLIYTASNLESGIPARFSGSGSGADFTLTIHPVEEEDAATYYCQQGNEDPWTFGGGTRLEIKR
Result: 0.0521
